# tested system: human thrombin with His tag (human, UniProt P00734 328-622)
# measurement notes: binding ELISA, biotinylated His-tagged human thrombin on streptavidin plate
quantity measured: pEC50
Value format note: pEC50 is -log10 of concentration (mol/L); just state the number.

Please review the following examples before continuing.
{"binder": "humanized antibody h1601-008 (antibody, human IgG4 S228P, kappa, V domains shown) VH: EVQLVESGGGLVQPGGSLRLSCAASGFTFSDYYMAWVRQAPGKGLEWVSNINSDGSSTYYLDSLKSRFTISRDNSKNTLYLQMNSLKAEDTAVYYCARDHYHGNSYVFDYWGQGTTVTVSS VL: DIQMTQSPSSLSASVGDRVTITCKASEDIYNRLAWYQQKPGKAPRLIISGATSLETGVPSRFSGSGSGKDYTLTISSLQPEDFATYYCQQYWSTPWTFGGGTKVEIKR", "quantity measured": "pEC50", "measured value": 8.81}
{"binder": "humanized antibody h1601-005 (antibody, human IgG4 S228P, kappa, V domains shown) VH: EVQLVESGGGLVQPGGSLRLSCAASGFTFSDYYMAWVRQAPGKGLEWVSNINSDGSSTYYLDSLKSRFTISRDNSKNTLYLQMNSLKAEDTAVYYCARDHYHGNSYVFDYWGQGTTVTVSS VL: DIQMTQSPSSLSASVGDRVTITCKASEDIYNRLAWYQQKPGKAPKLLISGATSLETGVPSRFSGSGSGKDFTLTISSLQPEDFATYYCQQYWSTPWTFGGGTKVEIKR", "quantity measured": "pEC50", "measured value": 8.24}
{"binder": "humanized antibody h1601-009 (antibody, human IgG4 S228P, kappa, V domains shown) VH: EVKLVESGGGLVQPGGSLRLSCAASGFTFSDYYMAWVRQAPGKGLEWVANINSDGSSTYYLDSLKSRFTISRDNSKNTLYLQMNSLKAEDTAVYYCARDHYHGNSYVFDYWGQGTTVTVSS VL: DIQMTQSPSSLSASVGDRVTITCKASEDIYNRLAWYQQKPGKAPRLIISGATSLETGVPSRFSGSGSGKDYTLTISSLQPEDFATYYCQQYWSTPWTFGGGTKVEIKR", "quantity measured": "pEC50", "measured value": 8.83}

Below: the item to evaluate.
Entry under test: humanized antibody h1601-006 (antibody, human IgG4 S228P, kappa, V domains shown) VH: EVKLVESGGGLVQPGGSLRLSCAASGFTFSDYYMAWVRQAPGKGLEWVANINSDGSSTYYLDSLKSRFTISRDNSKNTLYLQMNSLKAEDTAVYYCARDHYHGNSYVFDYWGQGTTVTVSS VL: DIQMTQSPSSLSASVGDRVTITCKASEDIYNRLAWYQQKPGKAPKLLISGATSLETGVPSRFSGSGSGKDFTLTISSLQPEDFATYYCQQYWSTPWTFGGGTKVEIKR . Its pEC50 was 8.35
